System: pooled human cryopreserved hepatocytes (pHHeps)
assay-method-text: Metabolic stability, pooled human cryopreserved hepatocyte incubations
conditions: pHHeps, 6 min
Threshold check on % parent compound remaining, Average: strictly below 70% is 1; on or above 70% is 0.

Consider the molecule COC(=O)[C@H](NC(=O)c1nn(CCCCCF)c2ccccc12)C(C)(C)C [(R)-5F-MDMB-PINACA (2)] . Is its % parent compound remaining, Average strictly less than 70%? 1

---

# % parent compound remaining, Average values compiled below
Test system: pooled human cryopreserved hepatocytes (pHHeps)
assay-method-text: Metabolic stability, pooled human cryopreserved hepatocyte incubations
conditions: pHHeps, 45 min
Your answer should be a plain number; it is taken to be in %.

C=CCCCn1cc(C(=O)N[C@@H](C(=O)OC)C(C)(C)C)c2ccccc21 [(R)-MDMB-4en-PICA (12)] : 46.4
C=CCCCn1cc(C(=O)N[C@H](C(=O)OC)C(C)C)c2ccccc21 [(S)-AMB-4en-PICA (7)] : 1.9

Note: attention shifts to another entry.
Return % parent compound remaining, Average measured with pooled human cryopreserved hepatocytes (pHHeps) given this molecule: COC(=O)[C@@H](NC(=O)c1nn(Cc2ccc(F)cc2)c2ccccc12)C(C)C [(S)-AMB-FUBINACA (1)] 1.1
